meta.source: the kinase profiling compilation of Christmann-Franck et al. (2016)

biological target: HIPK2 (human) (UniProt Q9H2X6); assay: radiometric filter-binding kinase assay, Kinase HotSpot; settings: compound 0.5 µM; ATP 10 µM
Sequence (Q9H2X6 whole entry, looked up): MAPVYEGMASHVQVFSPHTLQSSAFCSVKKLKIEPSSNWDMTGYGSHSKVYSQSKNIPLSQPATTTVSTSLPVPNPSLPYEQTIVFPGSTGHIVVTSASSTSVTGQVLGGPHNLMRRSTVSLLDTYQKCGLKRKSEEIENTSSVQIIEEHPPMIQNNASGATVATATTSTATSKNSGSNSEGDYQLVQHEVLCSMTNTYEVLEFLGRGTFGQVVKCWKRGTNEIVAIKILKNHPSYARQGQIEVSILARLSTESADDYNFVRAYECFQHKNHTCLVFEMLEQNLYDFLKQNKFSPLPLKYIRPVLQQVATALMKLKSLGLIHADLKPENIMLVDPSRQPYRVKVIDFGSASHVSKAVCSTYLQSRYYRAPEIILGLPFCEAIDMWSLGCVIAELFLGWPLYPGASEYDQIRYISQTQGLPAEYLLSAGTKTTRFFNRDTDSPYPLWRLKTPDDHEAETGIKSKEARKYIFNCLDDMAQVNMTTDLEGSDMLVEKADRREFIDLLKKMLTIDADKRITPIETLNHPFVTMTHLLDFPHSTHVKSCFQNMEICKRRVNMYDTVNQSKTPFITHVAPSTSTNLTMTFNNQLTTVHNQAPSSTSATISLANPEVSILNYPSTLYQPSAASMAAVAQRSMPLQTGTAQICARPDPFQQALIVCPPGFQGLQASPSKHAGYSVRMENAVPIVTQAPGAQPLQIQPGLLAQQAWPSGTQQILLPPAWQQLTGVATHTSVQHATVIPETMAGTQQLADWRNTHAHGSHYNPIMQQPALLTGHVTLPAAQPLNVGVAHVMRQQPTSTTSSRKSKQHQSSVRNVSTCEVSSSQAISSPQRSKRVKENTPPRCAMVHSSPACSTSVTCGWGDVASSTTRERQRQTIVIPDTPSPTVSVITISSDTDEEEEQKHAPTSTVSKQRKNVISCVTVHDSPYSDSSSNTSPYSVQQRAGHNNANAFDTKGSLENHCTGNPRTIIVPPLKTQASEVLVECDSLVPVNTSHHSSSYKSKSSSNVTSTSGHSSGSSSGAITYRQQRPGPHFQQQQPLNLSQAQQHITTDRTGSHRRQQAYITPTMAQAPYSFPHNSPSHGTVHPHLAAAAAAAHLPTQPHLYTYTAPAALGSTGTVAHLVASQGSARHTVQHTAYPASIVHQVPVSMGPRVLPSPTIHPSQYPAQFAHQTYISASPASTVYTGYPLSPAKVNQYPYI
Record form. Attribute: residual activity. Fill in for each entry.
Just the number please, in %, no unit attached.

Param item = `CC(C)(C)c1nc2c3ccc(F)cc3c3c(=O)[nH]ccc3c2[nH]1` ; retrieve measured residual activity.
98.7

Param item = `Nc1nc(Nc2ccc(S(N)(=O)=O)cc2)nn1C(=O)c1c(F)cccc1F` ; retrieve measured residual activity.
72.8

Param item = `O=c1cc(N2CCNCC2)oc2c(-c3ccccc3)cccc12` ; retrieve measured residual activity.
108

Param item = `Oc1ccc(-c2nc(-c3ccc(F)cc3)c(-c3ccncc3)[nH]2)cc1` ; retrieve measured residual activity.
102

---

molecular target: YES1 (human) (UniProt P07947); test: radiometric filter-binding kinase assay, Kinase HotSpot; conditions: compound 0.5 µM; ATP 10 µM
Sequence (P07947 whole entry, looked up): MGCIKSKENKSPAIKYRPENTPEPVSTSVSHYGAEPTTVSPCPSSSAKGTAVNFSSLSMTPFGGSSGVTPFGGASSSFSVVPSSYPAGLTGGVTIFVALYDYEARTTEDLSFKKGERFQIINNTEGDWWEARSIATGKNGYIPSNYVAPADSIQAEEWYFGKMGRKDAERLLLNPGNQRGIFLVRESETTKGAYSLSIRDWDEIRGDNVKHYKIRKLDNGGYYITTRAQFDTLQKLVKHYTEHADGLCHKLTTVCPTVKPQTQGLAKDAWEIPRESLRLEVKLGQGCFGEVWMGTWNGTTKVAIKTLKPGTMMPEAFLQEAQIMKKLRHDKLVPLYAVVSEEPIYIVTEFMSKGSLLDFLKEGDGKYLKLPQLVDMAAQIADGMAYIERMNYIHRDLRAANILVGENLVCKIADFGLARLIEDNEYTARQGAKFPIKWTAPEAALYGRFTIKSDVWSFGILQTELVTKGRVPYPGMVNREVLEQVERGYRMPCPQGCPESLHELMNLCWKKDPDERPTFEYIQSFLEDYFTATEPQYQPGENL
experimental_readout: residual activity (%)
Just the number please, in %, no unit attached.

Param item = `CC(C)[C@H](CO)Nc1nc(Nc2cccc(Cl)c2)c2ncn(C(C)C)c2n1` ; retrieve measured residual activity.
21.2

Param item = `CCCNC(=O)Nc1ccc(Oc2ncnc3cc(OC)c(OC)cc23)cc1Cl` ; retrieve measured residual activity.
82.1

Param item = `O=C1Cc2c([nH]c3ccc([N+](=O)[O-])cc23)-c2ccccc2N1` ; retrieve measured residual activity.
42.3

Param item = `CCN1/C(=C/C(C)=O)Sc2ccc(OC)cc21` ; retrieve measured residual activity.
91.8

Param item = O=C(NC(NC(=S)Nc1ccc(F)c([N+](=O)[O-])c1)C(Cl)(Cl)Cl)C(c1ccccc1)c1ccccc1 (stereo unspecified) ; retrieve measured residual activity.
94.6

Param item = `O=c1cc(-c2cccc3c2Sc2ccccc2S3)oc(N2CCOCC2)c1` ; retrieve measured residual activity.
89.4

Param item = `CC(C)n1cnc2c(Nc3cccc(Cl)c3)nc(NCCO)nc21` ; retrieve measured residual activity.
33.7

Param item = `COc1ccc(-c2cnc3c(-c4ccsc4)cnn3c2)cc1` ; retrieve measured residual activity.
67.7

Param item = `Nc1nc(Nc2ccc(S(N)(=O)=O)cc2)nn1C(=O)c1c(F)cccc1F` ; retrieve measured residual activity.
50.6

Param item = `O=C1Nc2ccccc2/C1=C\c1c(Cl)[nH]c2ccccc12` ; retrieve measured residual activity.
93.9

Param item = `CC(C)(C)c1nc2c3ccc(F)cc3c3c(=O)[nH]ccc3c2[nH]1` ; retrieve measured residual activity.
76.1

---

target: PLK2 (human) (UniProt Q9NYY3); experiment: radiometric filter-binding kinase assay, Kinase HotSpot; conditions: compound 0.5 µM; ATP 10 µM
Sequence (Q9NYY3 whole entry, looked up): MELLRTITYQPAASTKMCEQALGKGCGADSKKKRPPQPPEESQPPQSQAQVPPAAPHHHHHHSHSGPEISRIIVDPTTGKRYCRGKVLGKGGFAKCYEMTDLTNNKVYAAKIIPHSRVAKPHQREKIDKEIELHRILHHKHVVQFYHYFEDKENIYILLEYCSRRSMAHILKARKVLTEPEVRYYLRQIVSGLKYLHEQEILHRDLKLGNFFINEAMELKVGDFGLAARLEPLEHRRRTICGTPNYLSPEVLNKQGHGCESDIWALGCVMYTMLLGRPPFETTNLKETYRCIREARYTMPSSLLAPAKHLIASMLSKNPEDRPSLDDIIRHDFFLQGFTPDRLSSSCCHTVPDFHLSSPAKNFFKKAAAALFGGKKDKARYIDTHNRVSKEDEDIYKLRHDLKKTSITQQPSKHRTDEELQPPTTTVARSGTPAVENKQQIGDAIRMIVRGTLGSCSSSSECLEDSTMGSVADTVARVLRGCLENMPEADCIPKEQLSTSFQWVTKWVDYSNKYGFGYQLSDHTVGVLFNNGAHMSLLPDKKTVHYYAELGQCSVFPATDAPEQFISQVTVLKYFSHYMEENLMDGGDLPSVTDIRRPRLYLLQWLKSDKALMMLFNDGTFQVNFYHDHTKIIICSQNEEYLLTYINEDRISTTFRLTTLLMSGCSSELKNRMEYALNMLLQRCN
experimental_readout: residual activity (%)
Just the number please, in %, no unit attached.

Param item = `O=c1cc(N2CCNCC2)oc2c(-c3ccccc3)cccc12` ; retrieve measured residual activity.
98.9

Param item = `NC(=O)c1ccc(N(C(N)=O)c2c(F)cccc2F)nc1-c1ccc(F)cc1F` ; retrieve measured residual activity.
102

Param item = `O=C1Cc2c([nH]c3ccc([N+](=O)[O-])cc23)-c2ccccc2N1` ; retrieve measured residual activity.
106

---

target: PIM3 (human) (UniProt Q86V86); assay: radiometric filter-binding kinase assay, Kinase HotSpot; conditions: compound 0.5 µM; ATP 10 µM
Please note: 1 applies when residual activity is 80% or greater, and 0 applies otherwise.

Answer whether residual activity of `Cc1cc2ncc(-c3ccccc3)nc2cc1C` is greater than or equal to 80%.
1

Answer whether residual activity of `Cc1ccc(NC(=O)c2ccc(CN3CCN(C)CC3)cc2)cc1Nc1nc(-c2cccnc2)cs1` is greater than or equal to 80%.
0

Answer whether residual activity of `Oc1ccc(-c2nc(-c3ccc(F)cc3)c(-c3ccncc3)[nH]2)cc1` is greater than or equal to 80%.
1

Answer whether residual activity of `Nc1nc(Nc2ccc(S(N)(=O)=O)cc2)nn1C(=O)c1c(F)cccc1F` is greater than or equal to 80%.
1

Answer whether residual activity of `CCN1/C(=C/C(C)=O)Sc2ccc(OC)cc21` is greater than or equal to 80%.
0

Answer whether residual activity of `CC(C)[C@H](CO)Nc1nc(Nc2cccc(Cl)c2)c2ncn(C(C)C)c2n1` is greater than or equal to 80%.
1

Answer whether residual activity of CS(=O)c1ccc(-c2nc(-c3ccc(F)cc3)c(-c3ccncc3)[nH]2)cc1 (stereo unspecified) is greater than or equal to 80%.
1

Answer whether residual activity of `O=C1Cc2c([nH]c3ccc([N+](=O)[O-])cc23)-c2ccccc2N1` is greater than or equal to 80%.
0

Answer whether residual activity of `COc1cc2ncnc(Nc3ccc(F)c(Cl)c3)c2cc1OCCCN1CCOCC1` is greater than or equal to 80%.
0

Answer whether residual activity of `COc1ccc(-c2cnc3c(-c4ccsc4)cnn3c2)cc1` is greater than or equal to 80%.
1
